Biological target: NLRP3 inflammasome (Homo sapiens, UniProt Q96P20)
Construct: endogenous in cells
Sequence (Q96P20 whole entry): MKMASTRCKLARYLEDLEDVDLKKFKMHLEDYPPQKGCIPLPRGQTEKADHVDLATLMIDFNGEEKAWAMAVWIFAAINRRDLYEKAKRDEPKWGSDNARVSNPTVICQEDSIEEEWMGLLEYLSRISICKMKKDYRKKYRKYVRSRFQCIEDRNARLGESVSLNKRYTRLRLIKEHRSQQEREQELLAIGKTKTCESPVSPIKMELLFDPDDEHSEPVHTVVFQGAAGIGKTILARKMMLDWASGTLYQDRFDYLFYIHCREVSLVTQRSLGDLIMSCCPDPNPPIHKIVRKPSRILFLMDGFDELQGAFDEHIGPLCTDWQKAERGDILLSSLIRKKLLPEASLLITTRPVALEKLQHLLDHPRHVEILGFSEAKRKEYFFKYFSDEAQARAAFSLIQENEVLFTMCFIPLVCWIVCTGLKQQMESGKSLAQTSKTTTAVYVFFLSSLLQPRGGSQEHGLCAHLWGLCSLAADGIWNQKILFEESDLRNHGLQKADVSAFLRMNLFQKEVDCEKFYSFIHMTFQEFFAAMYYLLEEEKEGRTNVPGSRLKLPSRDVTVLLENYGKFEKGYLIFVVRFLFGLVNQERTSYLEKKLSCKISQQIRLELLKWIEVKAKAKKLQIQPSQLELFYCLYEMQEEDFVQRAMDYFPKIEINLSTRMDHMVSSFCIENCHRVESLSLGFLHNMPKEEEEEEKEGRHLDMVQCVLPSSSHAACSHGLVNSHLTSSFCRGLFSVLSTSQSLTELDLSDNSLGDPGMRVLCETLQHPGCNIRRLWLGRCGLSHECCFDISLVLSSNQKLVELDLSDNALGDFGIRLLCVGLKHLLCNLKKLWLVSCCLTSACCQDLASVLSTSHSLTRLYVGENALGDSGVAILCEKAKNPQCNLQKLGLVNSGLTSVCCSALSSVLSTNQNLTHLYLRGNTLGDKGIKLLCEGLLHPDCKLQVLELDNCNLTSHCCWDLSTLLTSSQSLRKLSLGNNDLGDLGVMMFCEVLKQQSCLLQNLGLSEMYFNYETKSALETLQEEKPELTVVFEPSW
Assay: IL-1β secretion assay (NLRP3 IC50) in LPS-primed, nigericin-activated THP-1 cells, HTRF
Conditions: monocytic THP-1 cells; LPS 10 ng/mL 3 h priming, then compound + nigericin 10 μM 2 h; relative IC50, 10 concentrations, geometric mean
Property Name: pIC50
Here pIC50 is given on a logarithmic scale as minus log10 of the concentration in mol/L.

# count of solved cases: 2
[[record]]
compound = "CCN1CC[C@H]2CCN(c3ccc(-c4c(C)cc(Cl)cc4O)nn3)[C@H]2C1 (single isomer, unassigned) [Example 497]"
numeric_readout = 9.40

[[record]]
compound = "Cc1cc(Cl)cc(O)c1-c1ccc(N2CC[C@H](CO)C2)nn1 [Example 127]"
numeric_readout = 6.90


// pIC50 lookup, compound = CN(C)C[C@@H]1CN(c2ccc(-c3c(O)cc(Cl)cc3Cl)nn2)CCO1 [Example 43] , result: 6.22

// pIC50 lookup, compound = Cc1cc(C)c(-c2ccc(N3CCOc4ccc(O)cc43)nn2)c(O)c1 [Example 162] , result: 8.00

// pIC50 lookup, compound = Cc1cccc(O)c1-c1ccc(N2CC[C@@H]3CCN(C)C[C@@H]32)nn1 (single isomer, unassigned) [Example 415] , result: 5.33

// pIC50 lookup, compound = Cc1cc(C(C)C)cc(O)c1-c1ccc(N2CCO[C@H](CO)C2)nn1 [Example 274] , result: 6.77

// pIC50 lookup, compound = CCN1CCN(c2ccc(-c3c(C)cc(C)cc3O)nn2)CC12CCOC2 (centres unmarked) [Example 227] , result: 5.92

// pIC50 lookup, compound = Cc1cc(C)c(-c2ccc(N3CCOc4ccncc43)nn2)c(O)c1 [Example 362] , result: 5.45
